# subject.of.test: T1, recombinant canine β NGF (canine, UniProt Q29074 110-229 (pig entry))
# T1 chain: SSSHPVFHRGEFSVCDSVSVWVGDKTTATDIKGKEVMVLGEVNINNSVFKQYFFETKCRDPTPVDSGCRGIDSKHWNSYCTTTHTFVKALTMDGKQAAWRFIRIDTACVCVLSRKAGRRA
# assay.notes: cell-based or functional assay
Assignment: determine reported IC50, canine NGF-induced TF-1 cell proliferation (70 pM canine NGF) for the given binders.
Write the quantity with the unit trailing the number.

Okay, here is my list. What is IC50, canine NGF-induced TF-1 cell proliferation (70 pM canine NGF) for each of these?
1. 77.3 Canine IgG1/k (antibody, V domains shown) VH: EVQLVQSAAEVKKPGASVKVSCKASGFNIKDTYIYWVKQAPGAGLEWIGRIDPANGNTIYASKFQGKASITADTSTNTAYMELSNLRTEDTAVYYCAGYGYYAYWGQGTLVTVSS VL: DVVLTQTPRSLSVSPGETASISCKSTKSLLNGDGFTYLDWYRQKPGQSPQLLIYLVSNRFSGVPDRFSGSGSGTDFTLRISRVEADDTGLYYCFESNYLFTFGQGTNLEMKR
2. 73.4 Canine IgG1/k (antibody, V domains shown) VH: EVQLVQSAAEVKKPGASVKVSCKASGYIFINYWMHWVQQAPGAGLEWMGRIDPYGGGTKHNEKFKRRVTLTADKSTSTVYMELSNLRTEDTAVYYCTRSGYDYYFDVWGQGTLVTVSS VL: DIQMTQTPLSLSASPGESASISCRASENIYSFLAWHRQKPGQSPQLLIYNANTLAEGVPSRFSGSGSGTQFTLRISRVEDEDAGLYYCQHHFGTPFTFGQGTKLEIKR
3. 82.3 Canine IgG1/k (antibody, V domains shown, The variable/constant junction was not checked; also called PR-1313519; PR-13113519) VH: EVQLQESGPGLVKPSQTLSLTCTVSGFSLTGYNINWVRQRPDRGLEWLGMIWGYGDTDYNSALKSRLSISKDNTKSQVFLQLTSTTTEDTAVYYCARDHYGGNDWYFDVWGQGTLVTVSS VL: DIQMTQTPLSLSASPGESASITCRASQDITNYLNWYRQKPGQSVKLLIYYTSRLHSGVPSRFSGSGSGTDYSLRISRVEDEDAGLYFCQQGKTLPRTFGQGTKLEIKR
4. 72.4 Canine IgG1/k (antibody, V domains shown) VH: EVHLVESGGDLVKPGGSLRLSCVASGFTFSDYYMFWVRHSPGKGLEWVATISDGGSYTYYTDNVKGRFTISRDNANNTLYLQMNSLRAEDTAVYYCAKDWSDSEGFAYWGQGTLVTVSS VL: DIVMTQTPPSLSVSPREPASISCRSSQSIVQSNGNTYLEWYLQKPGQSPKLLIYKVSNRFSGVPDRFSGSGSGTDFTLRISRVEADDTGVYYCFQGSHVPFTFGAGTKVELKR
5. 82.4 Canine IgG1/k (antibody, V domains shown, The variable/constant junction was not checked; also called PR-1313521; PR-13113521) VH: EVQLQESGPGLVKPSQTLSLTCTVSGGSVTGYNINWIRQRPDRGLEWMGMIWGYGDTDYNSALKSRISITKDNTKSQLFLQLTSTTTEDTAVYYCARDHYGGNDWYFDVWGQGTLVTVSS VL: DIQMTQTPLSLSASPGESASISCRASQDITNYLNWYRQKPGQSPKLLIYYTSRLHSGVPSRFSGSGSGTDYTLRISRVEDEDAGLYFCQQGKTLPRTFGQGTKLEIKR

A)
["0.625 nM", "0 nM", "0.017 nM", "0 nM", "0.016 nM"]

Okay, here is my list. What is IC50, canine NGF-induced TF-1 cell proliferation (70 pM canine NGF) for each of these?
1. 72.3 Canine IgG1/k (antibody, V domains shown) VH: EVHLVESGGDLVKPGGSLRLSCVASGFTFSDYYMFWIRQSPGKGLEWVATISDGGSYTYYTDNVKGRFTISRDNANNNLYLQMNSLKAEDTAVYYCAKDWSDSEGFAYWGQGTLVTVSS VL: DVLMTQTPPSLSVSPREPASISCRSSQSIVQSNGNTYLEWYLQKPGQSPKLLIYKVSNRFSGVPDRFSGSGSGTDFTLRISRVEADDTGVYYCFQGSHVPFTFGAGTKVELKR
2. 73.2 Canine IgG1/k (antibody, V domains shown, The variable/constant junction was not checked; also called PR-1313520; PR-13113520) VH: QVQLVQSAAEVKKPGASVKVSCKASGYTFTNYWMHWVQQAPGAGLEWIGRIDPYGGGTKHNEKFKRRATVTADKSTSTAYMELSNLRTEDTAVYYCTRSGYDYYFDVWGQGTLVTVSS VL: DIQMTQTPLSLSASPGESASITCRASENIYSFLAWHRQKPGQSPQLLVYNANTLAEGVPSRFSGSGSGTQFTLRISRVEDEDAGLYYCQHHFGTPFTFGQGTKLEIKR

A)
0 nM
0.422 nM

Just for reference, patent US20180362629A1 is where these values come from.
